Tested on: Saccharomyces cerevisiae;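 also: PSI is a weighted mean of sequencing reads over stability bins, variants kept only with over 10 reads, mCherry proximal and sfGFP distal, peptide attached via GGGS linker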
Experiment: protein stability index of tFT-peptide fusion (C-terminal peptide) (PSI (0-1 scale)); higher = more stable (slower turnover)
Settings: genetic background: wild type; temperature: 30 C
Think of 0.7 as a floor: if protein stability index stands on it or above, it is Y; beneath it, N.

>>> df
        sequence               test_system  classification
 0  IFPVFHPPFVVI  Saccharomyces cerevisiae               N
 1  GEGRRWGSFWVG  Saccharomyces cerevisiae               N
 2  FFVYFFLLLFWF  Saccharomyces cerevisiae               N
 3  RSSEVQADRMCQ  Saccharomyces cerevisiae               N
 4  ARGAPVSGRAGG  Saccharomyces cerevisiae               N
 5  PWRPRMAGVDYR  Saccharomyces cerevisiae               Y
 6  HCNRLIFWYKCT  Saccharomyces cerevisiae               N
 7  TKIQFTITLIGK  Saccharomyces cerevisiae               N
 8  NPPPSPALLSRP  Saccharomyces cerevisiae               Y
 9  GLSALVVCPSWG  Saccharomyces cerevisiae               N
10  CPLAAGSFSSLS  Saccharomyces cerevisiae               N
11  GLRRWLSTAMRR  Saccharomyces cerevisiae               Y
12  FFSQLFLEIVAA  Saccharomyces cerevisiae               N
